Molecular target: Metabotropic glutamate receptor 3 (Rattus norvegicus) (UniProt P31422)
Assay: Positive allosteric modulator activity at rat mGlu3 receptor transfected in GIRK channel overexpressing cells assessed as potentiation of glutamate-induced response by thallium mobilization assay relative to glutamate
Set-up: concentration or dose not given beside the values
Conditions: filed as positive allosteric modulator
Endpoint: Activity (%)

COc1ccc(C(=O)O)cc1OC[C@@H](C)Oc1ccc(C(=O)CC(C)(C)C)c(O)c1C | 97
Cc1c(O[C@@H](C)COc2ccc(F)c(C(=O)O)c2)ccc(C(=O)CC(C)(C)C)c1O | 89
Cc1c(OCCCCOc2ccc(C(=O)O)cc2F)ccc(C(=O)CC(C)(C)C)c1O | 98
Cc1c(OCC(C)COc2cc(C(=O)O)ccc2F)ccc(C(=O)CC(C)(C)C)c1O (single isomer, unassigned) | 74

a. COc1ccc(OCCCCOc2ccc(C(=O)CC(C)(C)C)c(O)c2C)cc1C(=O)O
b. Cc1ccc(OC[C@H](C)COc2ccc(C(=O)CC(C)(C)C)c(O)c2C)cc1C(=O)O
Request: Sort a and b by Activity descending and give the first. Field: selected label. Fill in the label of the entry you choose.
Response: a

###

Molecular target: Metabotropic glutamate receptor 2 (Rattus norvegicus) (UniProt P31421)
Sequence (P31421 19-872 limits assumed): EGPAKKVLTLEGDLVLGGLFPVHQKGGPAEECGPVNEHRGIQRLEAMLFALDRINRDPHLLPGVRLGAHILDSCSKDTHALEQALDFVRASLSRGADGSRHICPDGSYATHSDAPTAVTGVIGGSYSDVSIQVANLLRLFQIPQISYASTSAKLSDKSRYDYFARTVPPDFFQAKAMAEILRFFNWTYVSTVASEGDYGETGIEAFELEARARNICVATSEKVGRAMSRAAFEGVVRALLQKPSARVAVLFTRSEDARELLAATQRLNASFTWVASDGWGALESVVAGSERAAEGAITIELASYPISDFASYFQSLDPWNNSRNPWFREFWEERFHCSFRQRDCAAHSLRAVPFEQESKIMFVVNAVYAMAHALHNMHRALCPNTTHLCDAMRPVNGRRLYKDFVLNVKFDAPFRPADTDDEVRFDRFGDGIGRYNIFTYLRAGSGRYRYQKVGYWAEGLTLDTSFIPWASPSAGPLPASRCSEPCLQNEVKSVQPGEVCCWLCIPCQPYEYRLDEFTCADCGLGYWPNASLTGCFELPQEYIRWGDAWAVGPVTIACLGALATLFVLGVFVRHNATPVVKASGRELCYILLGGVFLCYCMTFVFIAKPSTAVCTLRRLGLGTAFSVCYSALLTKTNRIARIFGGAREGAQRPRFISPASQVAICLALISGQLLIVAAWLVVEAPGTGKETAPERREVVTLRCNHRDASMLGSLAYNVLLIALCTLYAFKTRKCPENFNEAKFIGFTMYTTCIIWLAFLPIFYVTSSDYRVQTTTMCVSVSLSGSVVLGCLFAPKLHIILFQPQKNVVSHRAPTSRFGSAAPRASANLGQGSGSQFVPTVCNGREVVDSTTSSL
Assay: Positive allosteric modulator activity at rat mGlu2 receptor transfected in GIRK channel overexpressing cells assessed as potentiation of glutamate -induced response by thallium mobilization assay relative to glutamate
Design: concentration or dose not given beside the values
Settings: filed as positive allosteric modulator
Endpoint: Activity (%)

Cc1c(OCC(C)COc2ccc(C(=O)O)cc2Cl)ccc(C(=O)CC(C)(C)C)c1O (single isomer, unassigned) | 97
Cc1c(OCC(C)COc2ccc(C(=O)O)cc2F)ccc(C(=O)CC(C)(C)C)c1O (single isomer, unassigned) | 98
Cc1ncc(OCCCCOc2ccc(C(=O)CC(C)(C)C)c(O)c2C)cc1C(=O)O | 116
COc1cc(C(=O)O)ccc1OC[C@H](C)COc1ccc(C(=O)CC(C)(C)C)c(O)c1C | 110

###

Molecular target: Metabotropic glutamate receptor 3 (Rattus norvegicus) (UniProt P31422)
Experiment: Positive allosteric modulator activity at rat mGlu3 receptor transfected in GIRK channel overexpressing cells assessed as potentiation of glutamate-induced response by thallium mobilization assay relative to glutamate
Parameters: concentration or dose not given beside the values
Conditions: filed as positive allosteric modulator
Endpoint: Activity (%)

Cc1c(O[C@H](C)COc2ccc(F)c(C(=O)O)c2)ccc(C(=O)CC(C)(C)C)c1O | 79
COc1ccc(C(=O)O)cc1O[C@H](C)COc1ccc(C(=O)CC(C)(C)C)c(O)c1C | 111
Cc1c(OCCCCOc2cncc(C(=O)O)c2)ccc(C(=O)CC(C)(C)C)c1O | 91
Cc1c(OC[C@@H](C)Oc2ccc(F)c(C(=O)O)c2)ccc(C(=O)CC(C)(C)C)c1O | 117
CNC(=O)c1cc(OCCCCOc2ccc(C(=O)CC(C)(C)C)c(O)c2C)ccc1F | 103

###

Target: Metabotropic glutamate receptor 3 (Rattus norvegicus, UniProt P31422)
Sequence (P31422 whole entry): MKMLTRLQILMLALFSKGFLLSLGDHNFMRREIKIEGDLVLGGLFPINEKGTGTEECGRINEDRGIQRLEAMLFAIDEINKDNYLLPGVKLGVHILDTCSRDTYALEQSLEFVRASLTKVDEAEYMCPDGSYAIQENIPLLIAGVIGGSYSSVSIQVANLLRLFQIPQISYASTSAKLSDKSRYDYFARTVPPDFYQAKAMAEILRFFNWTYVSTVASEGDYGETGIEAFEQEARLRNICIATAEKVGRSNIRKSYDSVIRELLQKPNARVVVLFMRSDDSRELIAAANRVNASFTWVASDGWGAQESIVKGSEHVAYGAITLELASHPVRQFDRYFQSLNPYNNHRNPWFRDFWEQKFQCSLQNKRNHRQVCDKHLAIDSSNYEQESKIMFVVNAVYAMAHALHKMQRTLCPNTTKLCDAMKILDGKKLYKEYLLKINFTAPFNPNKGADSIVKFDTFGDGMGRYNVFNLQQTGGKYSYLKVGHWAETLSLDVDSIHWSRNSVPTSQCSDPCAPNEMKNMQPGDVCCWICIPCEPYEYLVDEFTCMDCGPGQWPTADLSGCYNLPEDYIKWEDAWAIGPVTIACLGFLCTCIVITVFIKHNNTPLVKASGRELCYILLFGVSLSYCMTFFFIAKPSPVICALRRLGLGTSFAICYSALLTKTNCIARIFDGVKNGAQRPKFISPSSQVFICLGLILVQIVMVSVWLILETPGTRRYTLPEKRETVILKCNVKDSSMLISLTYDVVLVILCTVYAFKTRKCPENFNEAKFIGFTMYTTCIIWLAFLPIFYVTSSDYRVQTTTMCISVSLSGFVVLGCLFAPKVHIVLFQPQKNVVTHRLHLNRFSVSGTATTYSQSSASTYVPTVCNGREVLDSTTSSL
Assay: Positive allosteric modulator activity at rat mGlu3 receptor transfected in GIRK channel overexpressing cells assessed as potentiation of glutamate-induced response by thallium mobilization assay
Settings: read-out: EC50
pEC50: −log10 of the molar value.
Endpoint: pEC50

Here are 6 molecules together with their reported answers.
Cc1c(OCC(C)COc2ccc(C(=O)O)cc2Cl)ccc(C(=O)CC(C)(C)C)c1O (single isomer, unassigned) | 5.78
Cc1c(OC[C@@H](C)Oc2ccc(F)c(C(=O)O)c2)ccc(C(=O)CC(C)(C)C)c1O | 5.92
COc1ccc(C(=O)O)cc1OC[C@H](C)Oc1ccc(C(=O)CC(C)(C)C)c(O)c1C | 5.42
Cc1c(O[C@@H](C)COc2ccc(F)c(C(=O)O)c2)ccc(C(=O)CC(C)(C)C)c1O | 5.95
Cc1c(OCCCCOc2cncc(C(=O)O)c2)ccc(C(=O)CC(C)(C)C)c1O | 6.74
COc1cc(OCCCCOc2ccc(C(=O)CC(C)(C)C)c(O)c2C)cc(C(=O)O)c1 | 6.15

A. Cc1c(OC[C@@H](C)COc2ccc(Cl)c(C(=O)O)c2)ccc(C(=O)CC(C)(C)C)c1O
B. Cc1c(OCCCCOc2ccc(C(=O)O)c(F)c2)ccc(C(=O)CC(C)(C)C)c1O
Request: Sort A and B by pEC50 descending and give the first. Field: selected label. Fill in the label of the entry you choose.
Response: B
(B: 5.95, A: 5.66)

###

Biological target: Metabotropic glutamate receptor 2 (Rattus norvegicus, UniProt P31421)
Sequence (P31421 whole entry): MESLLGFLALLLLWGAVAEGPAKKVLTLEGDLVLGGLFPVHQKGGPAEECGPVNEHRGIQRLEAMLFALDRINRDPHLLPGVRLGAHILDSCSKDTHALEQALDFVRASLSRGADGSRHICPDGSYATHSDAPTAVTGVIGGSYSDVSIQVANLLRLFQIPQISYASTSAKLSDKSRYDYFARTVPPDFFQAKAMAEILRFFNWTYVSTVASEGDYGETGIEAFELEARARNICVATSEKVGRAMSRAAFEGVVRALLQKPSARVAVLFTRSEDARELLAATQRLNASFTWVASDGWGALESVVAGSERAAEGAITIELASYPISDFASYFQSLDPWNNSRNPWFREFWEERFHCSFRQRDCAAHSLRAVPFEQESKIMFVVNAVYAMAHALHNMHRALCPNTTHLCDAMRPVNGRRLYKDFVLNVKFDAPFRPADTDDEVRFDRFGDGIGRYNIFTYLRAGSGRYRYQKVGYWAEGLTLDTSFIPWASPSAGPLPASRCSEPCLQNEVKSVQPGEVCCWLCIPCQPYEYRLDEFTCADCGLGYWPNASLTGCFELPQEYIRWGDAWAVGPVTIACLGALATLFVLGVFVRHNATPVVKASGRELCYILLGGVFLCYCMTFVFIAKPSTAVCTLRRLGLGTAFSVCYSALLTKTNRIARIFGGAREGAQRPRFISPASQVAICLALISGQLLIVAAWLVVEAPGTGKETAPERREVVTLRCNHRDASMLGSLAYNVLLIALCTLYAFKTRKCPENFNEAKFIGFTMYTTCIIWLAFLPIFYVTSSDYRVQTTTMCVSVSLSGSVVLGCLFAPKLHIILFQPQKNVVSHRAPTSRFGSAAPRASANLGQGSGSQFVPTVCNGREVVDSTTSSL
Test: Positive allosteric modulator activity at rat mGlu2 receptor transfected in GIRK channel overexpressing cells assessed as potentiation of glutamate-induced response by thallium mobilization assay
Settings: read-out: EC50
pEC50: −log10 of the molar value.
Endpoint: pEC50

Here are 2 compounds together with their reported answers.
COc1cc(C(=O)O)ccc1OC[C@H](C)COc1ccc(C(=O)CC(C)(C)C)c(O)c1C | 7.55
Cc1c(OC[C@@H](C)COc2ccc(F)c(C(=O)O)c2)ccc(C(=O)CC(C)(C)C)c1O | 6.95

P. CNC(=O)c1cc(OCCCCOc2ccc(C(=O)CC(C)(C)C)c(O)c2C)ccc1F
Q. COc1ccc(C(=O)O)cc1OC[C@H](C)COc1ccc(C(=O)CC(C)(C)C)c(O)c1C
Request: For the pair P and Q , which member has the lower pEC50 number? Field: selected label. Fill in the label of the entry you choose.
Response: P
(P: 6.79, Q: 7.20)

###

Target: Metabotropic glutamate receptor 3 (Rattus norvegicus, UniProt P31422)
Test: Positive allosteric modulator activity at rat mGlu3 receptor transfected in GIRK channel overexpressing cells assessed as potentiation of glutamate-induced response by thallium mobilization assay
Details: read-out: EC50
pEC50: −log10 of the molar value.
Endpoint: pEC50

Here are 6 molecules together with their reported answers.
CNC(=O)c1cc(OCCCCOc2ccc(C(=O)CC(C)(C)C)c(O)c2C)ccc1F | 6.32
COc1ccc(C(=O)O)cc1OC[C@@H](C)Oc1ccc(C(=O)CC(C)(C)C)c(O)c1C | 6.09
COc1ccc(C(=O)O)cc1OC[C@H](C)COc1ccc(C(=O)CC(C)(C)C)c(O)c1C | 6.42
COc1cc(OC[C@H](C)COc2ccc(C(=O)CC(C)(C)C)c(O)c2C)ccc1C(=O)O | 5.84
Cc1c(OCC(C)COc2cc(C(=O)O)ccc2F)ccc(C(=O)CC(C)(C)C)c1O (single isomer, unassigned) | 5.40
COc1ccc(C(=O)O)cc1O[C@@H](C)COc1ccc(C(=O)CC(C)(C)C)c(O)c1C | 5.66

a. Cc1ncc(OCCCCOc2ccc(C(=O)CC(C)(C)C)c(O)c2C)cc1C(=O)O
b. Cc1ccc(C(=O)O)cc1OCCCCOc1ccc(C(=O)CC(C)(C)C)c(O)c1C
c. COc1cc(C(=O)O)ccc1OC[C@H](C)COc1ccc(C(=O)CC(C)(C)C)c(O)c1C
d. Cc1ccc(OCCCCOc2ccc(C(=O)CC(C)(C)C)c(O)c2C)cc1C(=O)O
Request: Rank order required: pEC50, descending. // ordering of labels required in reply
Response: a, d, c, b
(a: 7.10, d: 6.51, c: 6.29, b: 6.05)

a. Cc1c(OC[C@@H](C)COc2ccc(C(=O)O)c(F)c2)ccc(C(=O)CC(C)(C)C)c1O
b. COc1ccc(OCCCCOc2ccc(C(=O)CC(C)(C)C)c(O)c2C)cc1C(=O)O
Request: Sort a and b by pEC50 descending and give the first. Field: selected label. Fill in the label of the entry you choose.
Response: b

###

Molecular target: Metabotropic glutamate receptor 3 (Rattus norvegicus)
Experiment: Positive allosteric modulator activity at rat mGlu3 receptor transfected in GIRK channel overexpressing cells assessed as potentiation of glutamate-induced response by thallium mobilization assay
Conditions: read-out: EC50
pEC50: −log10 of the molar value.
Endpoint: pEC50

COc1ccc(C(=O)O)cc1OC[C@@H](C)COc1ccc(C(=O)CC(C)(C)C)c(O)c1C | 5.98
Cc1c(OC[C@H](C)COc2ccc(F)c(C(=O)O)c2)ccc(C(=O)CC(C)(C)C)c1O | 6.19

1. Cc1c(OCCCCOc2ccc(Cl)c(C(=O)O)c2)ccc(C(=O)CC(C)(C)C)c1O
2. Cc1c(OC[C@@H](C)COc2ccc(C(=O)O)c(Cl)c2)ccc(C(=O)CC(C)(C)C)c1O
3. Cc1cc(C(=O)O)ccc1OC[C@H](C)COc1ccc(C(=O)CC(C)(C)C)c(O)c1C
Request: Hey, quick one: sort these by pEC50, low to high? // ordering of labels required in reply
Response: 3, 2, 1

###

Target: Metabotropic glutamate receptor 2 (Rattus norvegicus, UniProt P31421)
Assay: Positive allosteric modulator activity at rat mGlu2 receptor transfected in GIRK channel overexpressing cells assessed as potentiation of glutamate-induced response by thallium mobilization assay
Details: read-out: EC50
pEC50: −log10 of the molar value.
Endpoint: pEC50

Here are 5 molecules together with their reported answers.
Cc1ncc(OCCCCOc2ccc(C(=O)CC(C)(C)C)c(O)c2C)cc1C(=O)O | 7.55
Cc1c(OCC(C)COc2ccc(C(=O)O)cc2Cl)ccc(C(=O)CC(C)(C)C)c1O (single isomer, unassigned) | 6.32
Cc1ccc(C(=O)O)cc1OCCCCOc1ccc(C(=O)CC(C)(C)C)c(O)c1C | 6.29
Cc1c(OCC(C)COc2ccc(C(=O)O)cc2F)ccc(C(=O)CC(C)(C)C)c1O (single isomer, unassigned) | 6.65
COc1ccc(C(=O)O)cc1OC[C@@H](C)Oc1ccc(C(=O)CC(C)(C)C)c(O)c1C | 7.11

P. COc1cc(OCCCCOc2ccc(C(=O)CC(C)(C)C)c(O)c2C)cc(C(=O)O)c1
Q. Cc1c(O[C@@H](C)COc2ccc(F)c(C(=O)O)c2)ccc(C(=O)CC(C)(C)C)c1O
R. Cc1c(OC[C@@H](C)COc2ccc(C(=O)O)c(Cl)c2)ccc(C(=O)CC(C)(C)C)c1O
S. COc1ccc(OCCCCOc2ccc(C(=O)CC(C)(C)C)c(O)c2C)cc1C(=O)O
T. Cc1cc(C(=O)O)ccc1OC[C@H](C)COc1ccc(C(=O)CC(C)(C)C)c(O)c1C
Request: Hey, quick one: sort these by pEC50, low to high? // ordering of labels required in reply
Response: T, Q, P, R, S

1. Cc1c(OCCCCOc2ccc(Cl)c(C(=O)O)c2)ccc(C(=O)CC(C)(C)C)c1O
2. Cc1c(OC[C@H](C)Oc2ccc(F)c(C(=O)O)c2)ccc(C(=O)CC(C)(C)C)c1O
3. Cc1c(OCCCCOc2cncc(C(=O)O)c2)ccc(C(=O)CC(C)(C)C)c1O
Request: Hey, quick one: sort these by pEC50, low to high? // ordering of labels required in reply
Response: 3, 2, 1

A. Cc1c(OCCCCOc2ccc(C(=O)O)c(F)c2)ccc(C(=O)CC(C)(C)C)c1O
B. Cc1c(OC[C@@H](C)COc2ccc(C(=O)O)c(F)c2)ccc(C(=O)CC(C)(C)C)c1O
C. COc1ccc(C(=O)N(C)C)cc1OCC(C)COc1ccc(C(=O)CC(C)(C)C)c(O)c1C (single isomer, unassigned)
Request: Rank order required: pEC50, descending. // ordering of labels required in reply
Response: A, B, C
(A: 7.10, B: 6.58, C: 5.30)

1. Cc1c(OC[C@@H](C)Oc2ccc(F)c(C(=O)O)c2)ccc(C(=O)CC(C)(C)C)c1O
2. Cc1c(OC[C@H](C)COc2ccc(F)c(C(=O)O)c2)ccc(C(=O)CC(C)(C)C)c1O
Request: Sort 1 and 2 by pEC50 descending and give the first. Field: selected label. Fill in the label of the entry you choose.
Response: 1

I. Cc1c(O[C@H](C)COc2ccc(F)c(C(=O)O)c2)ccc(C(=O)CC(C)(C)C)c1O
II. Cc1cc(OC[C@H](C)COc2ccc(C(=O)CC(C)(C)C)c(O)c2C)ccc1C(=O)O
Request: Sort I and II by pEC50 descending and give the first. Field: selected label. Fill in the label of the entry you choose.
Response: I
(I: 7.08, II: 6.52)

A. COc1cc(OC[C@H](C)COc2ccc(C(=O)CC(C)(C)C)c(O)c2C)ccc1C(=O)O
B. Cc1c(OCCCCOc2ccc(C(=O)O)cc2F)ccc(C(=O)CC(C)(C)C)c1O
Request: Sort A and B by pEC50 descending and give the first. Field: selected label. Fill in the label of the entry you choose.
Response: B

Reference for the values: ChEMBL document CHEMBL4834498
